Molecular target: T1, HiBiT-tagged human FZD4 (human, UniProt Q9ULV1 37-537)
T1 construct: the receptor's own signal peptide is probably replaced; also called HiBiT-FZD4; WT FZD4; source: HEK293A, transiently transfected, on live cells; not shown: HiBiT, N-terminal, kept
T1 sequence (looked up): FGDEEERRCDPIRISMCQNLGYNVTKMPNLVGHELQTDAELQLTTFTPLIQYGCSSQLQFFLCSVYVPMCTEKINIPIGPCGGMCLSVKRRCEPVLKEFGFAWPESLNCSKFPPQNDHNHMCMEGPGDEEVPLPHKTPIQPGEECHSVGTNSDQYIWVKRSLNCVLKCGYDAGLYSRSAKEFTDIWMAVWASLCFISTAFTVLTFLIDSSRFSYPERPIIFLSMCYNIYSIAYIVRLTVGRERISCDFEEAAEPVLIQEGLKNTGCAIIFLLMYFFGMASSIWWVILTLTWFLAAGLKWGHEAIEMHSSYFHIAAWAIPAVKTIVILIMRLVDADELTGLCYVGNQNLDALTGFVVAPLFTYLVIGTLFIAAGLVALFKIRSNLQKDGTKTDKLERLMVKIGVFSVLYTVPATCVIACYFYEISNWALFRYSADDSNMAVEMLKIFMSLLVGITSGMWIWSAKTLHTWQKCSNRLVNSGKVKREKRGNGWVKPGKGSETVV
Assay: FRET or BRET; NanoBiT/BRET competition binding on live HEK293A cells with HiBiT-FZD4: 30 min preincubation with purified untagged WNT at 37 °C, then eGFP-WNT-3A to 0.4 nM for 240 min, then LgBiT and furimazine; pKi by Cheng-Prusoff
Conditions: one partner purified
QUANTITY MEASURED: ΔBRET
Please reply with the value in numeric form only.

Measured ΔBRET, untagged human WNT-11 (ligand, UniProt O96014 25-354, looked up, WNT-11, human, untagged recombinant protein; source: bought: RnD Systems/Biotechne, purified) IKWLALSKTPSALALNQTQHCKQLEGLVSAQVQLCRSNLELMHTVVHAAREVMKACRRAFADMRWNCSSIELAPNYLLDLERGTRESAFVYALSAAAISHAIARACTSGDLPGCSCGPVPGEPPGPGNRWGGCADNLSYGLLMGAKFSDAPMKVKKTGSQANKLMRLHNSEVGRQALRASLEMKCKCHGVSGSCSIRTCWKGLQELQDVAADLKTRYLSATKVVHRPMGTRKHLVPKDLDIRPVKDSELVYLQSSPDFCMKNEKVGSHGTQDRQCNKTSNGSDSCDLMCCGRGYNPYTDRVVERCHCKYHWCCYVTCRRCERTVERYVCK : -0.001
